Measured Test F rating (% disease control) of individual entries
Test system: Blumeria graminis f. sp. tritici
Protocol notes: Test F: preventive spray on wheat seedlings, visual disease rating (wheat powdery mildew)
Type: in vivo
Test parameters: no asterisk: standard test suspension, not 40 ppm
Excerpt: General protocol for preparing test suspensions for Tests A-F: the test compounds were first dissolved in acetone in an amount equal to 3% of the final volume and then suspended at the desired concentration (in ppm) in acetone and purified water (50/50 mix by volume) containing 250 ppm of the surfactant Trem® 014 (polyhydric alcohol esters). […]
The response must be a number in % with no trailing unit.

Cc1nn(C)c(-c2c(F)cccc2Cl)c1C(=O)c1ccc(F)cc1F : 79
Cc1nn(C)c(-c2ccccc2I)c1C(O)c1ccc(F)cc1Br (stereo not shown) : 89
Cc1cc(F)ccc1C(O)c1c(C)nn(C)c1-n1ccnc1Cl (stereo not shown) : 0

Q: Notebook: pull reported Test F rating (% disease control) for Blumeria graminis f. sp. tritici, entry Cn1nc(Cl)c(C(O)c2ccc(F)cc2Br)c1-c1c(F)cccc1F (stereo not shown)
Result: 100

Q: So what Test F rating (% disease control) did Cc1nn(C)c(-c2ccc(F)cc2Cl)c1C(O)c1ccc(F)cc1F (stereo not shown) get with Blumeria graminis f. sp. tritici?
Result: 100

Q: Notebook entry, Blumeria graminis f. sp. tritici assay: Test F rating (% disease control) of Cc1nn(C)c(-c2ccc(C#N)cc2F)c1Oc1ccc(F)cc1F = ?
Result: 64
